B1: HDV Ribozyme (parent)
chain: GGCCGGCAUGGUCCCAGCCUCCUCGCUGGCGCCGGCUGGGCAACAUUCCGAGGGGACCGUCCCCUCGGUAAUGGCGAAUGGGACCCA

Variants of: B1
assay comment: self-cleavage, relative activity (ratio to wild type); higher = more cleavage; co-transcriptional
self-cleavage vs 0.7: at or above is label 1, below is label 0.

{"columns": ["seq string", "category label"],
 "data": [
  ["AGCCGGCAUGGUCCCAGCCUCCUCGCUGGCGCCGGCUGGGCAACAUUCCGAGGGGACCGACCCCUCGGUAAUGGCGAAUGGGACCCA [G1A U60A]", "label 0"],
  ["GGCCGGCAUGGUCCCAGCCUCCUCGCUGGCGCCGGCUGGGCAACAUUCCGAGGGGACCGUCCACUCGGUAAUGGCGAAUGGGACCCC [C63A A87C]", "label 1"],
  ["GGCCGGCAUGGUCCCAGCCUCCUCGCUGGCGCCGGCUGGGCAACAUUCCGAGGGGACCAUCCCCUCGGUAAUGGCGAGUGGGACCCA [G59A A78G]", "label 0"],
  ["GGCCGGCAUGGUCCCAGCCUCCUCGCUGGCGCCGGCUGGGCAACAUUCCGGGGGGACCGUCCCCUAGGUAAUGGCGAAUGGGACCCA [A51G C66A]", "label 1"],
  ["GGCCGGCAUGGUCCCAGCCUCCUCGCUGGCGCCGGCUGGGCAACAUUCCGAGGGGACCGUCCCCUCGGUAACGGCGACUGGGACCCA [U72C A78C]", "label 0"],
  ["GGCCGGCAUGGUCCCAGCCUCCUCGCGGGCGCCGGCUGGGCAACAUUCCGAGGGGACCGUCCACUCGGUAAUGGCGAAUGGGACCCA [U27G C63A]", "label 1"],
  ["GGCCAGCAUGGUCCCAGCCUCCACGCUGGCGCCGGCUGGGCAACAUUCCGAGGGGACCGUCCCCUCGGUAAUGGCGAAUGGGACCCA [G5A U23A]", "label 0"],
  ["GGCCGGCAGGGUCCCAGCCUCCUCGCUGGCGCCGGCUGGGCAACAUUCCGAGGGGACGGUCCCCUCGGUAAUGGCGAAUGGGACCCA [U9G C58G]", "label 1"],
  ["GGCCGGCAUGGUCCCAGCCUCCUCGCUGGCGCCCGCUGGGCUACAUUCCGAGGGGACCGUCCCCUCGGUAAUGGCGAAUGGGACCCA [G34C A42U]", "label 0"],
  ["GGCCGGCAUGGUCCCAGCCUCCUCGCUGGCGCCGGCUGGGCAACAUUCCGAGGGGACCGUCCCCUCGAUAAUGGCGAAUGGGACACA [G68A C85A]", "label 1"]
]}
